Recorded Reversion Factor (RF) values for a group of molecules are listed next.
test system: Chinese Hamster Pulmonary Line DC-3F/AD; assay: Increase in the cytotoxicity of actinomycin D on the Chinese hamster pulmonary line DC-3F/AD; type: cell-based; settings: compound 2.5 μM, 4 days;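 note: DC-3F/AD is an extremely resistant cell line whose resistance factor exceeds 10,000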
observable: Reversion Factor (RF)

[[record]]
molecule = "O=c1[nH]c2ccccc2n1C1CCN(CCCC(c2ccc(F)cc2)c2ccc(F)cc2)CC1 [PIMOZIDE]"
qual = "<"
numeric_result = 10

[[record]]
molecule = "C=CCNc1nc(NCC=C)nc(NC2CCN(CC(c3ccccc3)c3ccccc3)CC2)n1 [Example 3]"
qual = "="
numeric_result = 38

[[record]]
molecule = "C=CCNc1nc(NCCC)nc(N2CCC(NCCC(c3ccccc3)c3ccccc3)CC2)n1 [Example 8]"
qual = "="
numeric_result = 16.5

[[record]]
molecule = "COC(=O)[C@H]1[C@H]2C[C@@H]3c4[nH]c5cc(OC)ccc5c4CCN3C[C@H]2C[C@@H](OC(=O)c2cc(OC)c(OC)c(OC)c2)[C@@H]1OC [RESERPINE]"
qual = "="
numeric_result = 258

